Target: UniProtKB P37231
Sequence (P37231 238-503): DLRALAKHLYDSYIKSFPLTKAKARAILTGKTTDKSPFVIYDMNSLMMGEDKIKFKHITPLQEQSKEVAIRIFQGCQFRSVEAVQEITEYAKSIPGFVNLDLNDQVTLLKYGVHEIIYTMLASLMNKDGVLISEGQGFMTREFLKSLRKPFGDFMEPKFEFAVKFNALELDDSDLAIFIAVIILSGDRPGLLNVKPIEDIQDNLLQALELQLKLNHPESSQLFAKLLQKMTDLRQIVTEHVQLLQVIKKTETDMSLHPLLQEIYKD
Test: Lanthascreen PPARG competitive binding assay (Invitrogen, TR-FRET)
Conditions: Lanthascreen competitive binding; NA = not active; inc = incomplete curve; read-out: IC50 (nM) Lantha
measure: IC50 (nM)
Enter your answer as a number in nM; do not include the unit.

Field: example entries. Status: answers known.
>  <entry_smiles>
Cc1c(C)n(Cc2ccc(-c3ccccc3C(=O)O)cc2)c2ccc(C(=O)N[C@H](C)c3c(Cl)cccc3Cl)cc12

>  <IC50 / nM>
30

$$$$
>  <entry_smiles>
Cc1c(C)n(Cc2ccc(-c3ccccc3C(=O)O)cc2)c2ccc(C(=O)N[C@@H](C)c3ccccn3)cc12

>  <IC50 / nM>
2

$$$$

The reported value for Cc1c(C)n(Cc2ccc(-c3ccccc3C(=O)O)cc2)c2ccc(C(=O)N[C@@H](C)c3cccc(F)c3)cc12 in terms of IC50 is 8

Recorded result, COc1ccc(CNC(=O)c2ccc3c(c2)c(C)c(C)n3Cc2ccc(-c3ccccc3C(=O)O)cc2)cc1OC , IC50: 125

Query Cc1c(C)n(Cc2ccc(-c3ccccc3C(=O)O)cc2)c2ccc(C(=O)N[C@@H](C)c3cc(C4CC4)ccn3)cc12 yields IC50 of 8
